B1: PTPRD (parent)
chain: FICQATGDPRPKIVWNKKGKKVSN

Variants of: B1
Assay Protocol: protein stability index of a GFP-peptide fusion (GPS, HEK-293T) (PSI 1-6); higher = more stable;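 also: lentivirally expressed fusions sorted by FACS into six bins by GFP to DsRed ratio, PSI derived from sequencing read proportions per bin multiplied by bin number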
Assay Conditions: c terminus: a fixed tail appended
Quick rule: protein stability index of at least 2 means satisfied, below that means not satisfied.

Variant Name: G19Q
Assigned Class: satisfied
//
Variant Name: I13W
Assigned Class: not satisfied
//
Variant Name: F1R
Assigned Class: satisfied
//
Variant Name: C3Y
Assigned Class: not satisfied
//
Variant Name: W15R
Assigned Class: satisfied

Incoming: # bool: protein stability index of "P9Q" >= 2
Outgoing: not satisfied

Incoming: # bool: protein stability index of "G7E" >= 2
Outgoing: satisfied

Origin of values: the supplement of paper PMC10567573
